Assay target: CCK receptor (brain) (Cavia porcellus)
Construct: the cortex was removed and homogenized in 25 mL ice-cold 0.32M sucrose; from tissue; host or cells: cortex of male Hartley guinea pigs, P2 membranes
Sequence (H0VZC5 1-426): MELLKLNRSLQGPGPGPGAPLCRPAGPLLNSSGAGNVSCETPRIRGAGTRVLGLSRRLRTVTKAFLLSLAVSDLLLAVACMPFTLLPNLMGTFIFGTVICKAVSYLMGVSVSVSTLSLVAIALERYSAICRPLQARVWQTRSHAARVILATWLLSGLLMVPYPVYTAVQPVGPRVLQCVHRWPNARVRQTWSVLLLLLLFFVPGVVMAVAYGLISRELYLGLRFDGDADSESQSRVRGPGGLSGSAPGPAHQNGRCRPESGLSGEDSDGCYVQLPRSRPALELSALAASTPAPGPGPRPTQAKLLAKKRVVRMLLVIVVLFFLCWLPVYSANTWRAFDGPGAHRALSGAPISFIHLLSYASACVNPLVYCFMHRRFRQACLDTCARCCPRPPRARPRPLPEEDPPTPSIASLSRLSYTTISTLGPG
Method: CCK Receptor Binding (Brain), inhibition of specific 125I-CCK-8 binding
Parameters: species or system guinea pig (male Hartley)
Particulars: guinea pig cortex membranes; 50 pM 125I-CCK-8; 25° C., 2 hours; pH 6.5; read-out: IC50 125I-CCK Brain
Quantity measured: log10(IC50) (log10 of the value in nM)
Scale: decimal log of IC50, IC50 in nM.

Consider the reported log10(IC50) for these compounds:
{"columns": ["Compound", "Assay target", "log10(IC50)"],
 "data": [
  ["CN1C(=O)C(NC(=O)Nc2cccc(Nc3nnn[nH]3)c2)N=C(C2CCCCC2)c2ccccc21 (racemic) [Example 2]", "CCK receptor (brain) (Cavia porcellus)", -0.51],
  ["CN1C(=O)C(NC(=O)Nc2cccc(N(C)c3nnn[nH]3)c2)N=C(C2CCCCC2)c2ccccc21 (racemic) [Example 3]", "CCK receptor (brain) (Cavia porcellus)", -0.96]
]}

Input line: Would you mind telling me what log10(IC50) value was observed for Cc1ccc(NC(=O)NC2N=C(c3ccccc3)c3ccccc3N(C(C)(C)C)C2=O)cc1Nc1nnn[nH]1 (racemic) [Example 16] ?
Output line: 2.70

Input line: Would you mind telling me what log10(IC50) value was observed for CN1C(=O)C(NC(=O)Nc2cccc(CNc3nnn[nH]3)c2)N=C(C2CCCCC2)c2ccccc21 (racemic) [Example 1] ?
Output line: -0.09

Input line: Would you mind telling me what log10(IC50) value was observed for CN1C(=O)C(NC(=O)Nc2cccc(CNc3ncc[nH]3)c2)N=C(C2CCCCCC2)c2ccccc21 (racemic) [Example 20] ?
Output line: 1.53

Input line: Would you mind telling me what log10(IC50) value was observed for CCCN1C(=O)C(NC(=O)Nc2cccc(Nc3ncc[nH]3)c2)N=C(C2CCCCC2)c2ccccc21 (racemic) [Example 19] ?
Output line: 1.92

Input line: Would you mind telling me what log10(IC50) value was observed for CN1C(=O)[C@H](NC(=O)Nc2cccc(Nc3nnn[nH]3)c2)N=C(C2CCCCC2)c2ccccc21 [Example 5] ?
Output line: -0.15

Input line: Would you mind telling me what log10(IC50) value was observed for CN1C(=O)[C@H](NC(=O)Nc2cccc(CNc3nnn[nH]3)c2)N=C(C2CCCCC2)c2ccccc21 [Example 6] ?
Output line: -0.55

Input line: Would you mind telling me what log10(IC50) value was observed for CCCN1C(=O)C(NC(=O)Nc2cccc(CNc3ncc[nH]3)c2)N=C(C2CCCCC2)c2ccccc21 (racemic) [Example 18] ?
Output line: 1.15

Input line: Would you mind telling me what log10(IC50) value was observed for CCCN1C(=O)C(NC(=O)Nc2cccc(N(C)c3nnn[nH]3)c2)N=C(N2CCN(C)CC2)c2ccccc21 (single isomer, unassigned; (-)) [Example 17] ?
Output line: -0.03

Input line: Would you mind telling me what log10(IC50) value was observed for CN1C(=O)[C@H](NC(=O)Nc2cccc(N(C)c3nnn[nH]3)c2)N=C(C2CCCCC2)c2ccccc21 [Example 4] ?
Output line: -1.00

Input line: Would you mind telling me what log10(IC50) value was observed for CN1C(=O)C(C)(NC(=O)Nc2cccc(CNc3nnn[nH]3)c2)N=C(c2ccccc2)c2ccccc21 (racemic) [Example 15] ?
Output line: 3.11

Input line: Would you mind telling me what log10(IC50) value was observed for Cc1ccc(NC(=O)N[C@@H]2N=C(C3CCCCC3)c3ccccc3N(C)C2=O)cc1Nc1nnn[nH]1 [Example 10] ?
Output line: -1.38
